For each record, write down the corresponding Emax.
# SYSTEM NAME: BRG-1 (Homo sapiens, UniProt P51532)
# Sequence (P51532 whole entry): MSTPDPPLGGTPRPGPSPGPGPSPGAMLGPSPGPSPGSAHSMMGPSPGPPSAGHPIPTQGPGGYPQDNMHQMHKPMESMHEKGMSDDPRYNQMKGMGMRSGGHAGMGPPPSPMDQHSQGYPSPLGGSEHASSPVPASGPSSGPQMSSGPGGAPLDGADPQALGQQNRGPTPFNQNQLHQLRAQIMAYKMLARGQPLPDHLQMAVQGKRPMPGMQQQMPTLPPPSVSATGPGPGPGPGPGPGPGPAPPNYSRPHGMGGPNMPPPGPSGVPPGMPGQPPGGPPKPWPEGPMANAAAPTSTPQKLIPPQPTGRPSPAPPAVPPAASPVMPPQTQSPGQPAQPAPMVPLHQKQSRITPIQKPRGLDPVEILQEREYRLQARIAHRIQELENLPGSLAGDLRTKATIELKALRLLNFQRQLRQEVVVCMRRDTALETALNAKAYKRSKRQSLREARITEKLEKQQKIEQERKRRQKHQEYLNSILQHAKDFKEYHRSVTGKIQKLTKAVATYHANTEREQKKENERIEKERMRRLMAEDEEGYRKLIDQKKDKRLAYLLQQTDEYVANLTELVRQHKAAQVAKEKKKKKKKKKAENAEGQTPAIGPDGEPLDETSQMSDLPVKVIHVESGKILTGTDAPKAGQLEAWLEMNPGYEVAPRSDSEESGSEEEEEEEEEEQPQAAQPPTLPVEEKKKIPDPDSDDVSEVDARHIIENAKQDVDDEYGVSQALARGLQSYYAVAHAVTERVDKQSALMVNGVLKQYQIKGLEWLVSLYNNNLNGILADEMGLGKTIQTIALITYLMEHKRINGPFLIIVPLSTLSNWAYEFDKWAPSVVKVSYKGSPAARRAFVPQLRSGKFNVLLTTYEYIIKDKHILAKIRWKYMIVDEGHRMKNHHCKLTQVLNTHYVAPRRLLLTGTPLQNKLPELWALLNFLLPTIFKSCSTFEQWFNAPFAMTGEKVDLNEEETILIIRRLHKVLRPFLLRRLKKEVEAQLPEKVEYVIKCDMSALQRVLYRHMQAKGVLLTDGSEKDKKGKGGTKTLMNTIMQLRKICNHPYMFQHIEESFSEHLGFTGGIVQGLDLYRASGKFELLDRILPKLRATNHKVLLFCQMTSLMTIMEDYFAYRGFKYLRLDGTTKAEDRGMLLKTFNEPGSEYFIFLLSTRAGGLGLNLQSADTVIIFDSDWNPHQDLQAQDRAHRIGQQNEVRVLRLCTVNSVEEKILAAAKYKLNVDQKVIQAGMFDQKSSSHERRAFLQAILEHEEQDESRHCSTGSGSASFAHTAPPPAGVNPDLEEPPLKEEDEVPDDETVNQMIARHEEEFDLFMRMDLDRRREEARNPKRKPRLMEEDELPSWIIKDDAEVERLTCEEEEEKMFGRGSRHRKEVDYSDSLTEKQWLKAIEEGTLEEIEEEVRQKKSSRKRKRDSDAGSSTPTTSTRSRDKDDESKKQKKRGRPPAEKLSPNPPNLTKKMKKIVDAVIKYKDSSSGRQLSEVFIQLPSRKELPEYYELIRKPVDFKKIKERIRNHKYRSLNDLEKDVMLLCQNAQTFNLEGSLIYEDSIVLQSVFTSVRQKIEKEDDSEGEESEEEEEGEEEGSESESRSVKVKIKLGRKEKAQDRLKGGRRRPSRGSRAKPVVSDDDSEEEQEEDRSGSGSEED
# TEST NAME: ATPase catalytic activity assay of BRG-1 (ADP-Glo)
# Format: biochemical
# EXPERIMENTAL CONTEXT: ATPase catalytic activity, ADP-Glo; read-out: BRG1 Max % Inhibition

Task item: # returns recorded Emax (system: BRG-1 (Homo sapiens, UniProt P51532)) for `CC1(C)c2cc(C(=O)NCC(=O)Nc3nc(-c4cccc(-c5ccncc5)c4)cs3)ccc2C[C@H]1N`
Reply: > 80%

Task item: Entry CCC(C)(CO)c1cccc(C(=O)NCC(=O)Nc2nc(-c3cccc(-c4ccncc4)c3)cs2)c1 (stereo not drawn) please
Reply: > 50%

Task item: `CN1C(=O)CCc2ccc(-c3csc(NC(=O)CNC(=O)c4ccc5c(c4)[C@@](C)(CO)CC5)n3)cc21` ?
Reply: > 30%

* * *

What Emax was measured for each of the following?
# SYSTEM NAME: BRG-1 (Homo sapiens)
# TEST NAME: ATPase catalytic activity assay of BRG-1 (ADP-Glo)
# Assay type: biochemical
# EXPERIMENTAL CONTEXT: ATPase catalytic activity, ADP-Glo; read-out: BRG1 Max % Inhibition

Task item: Endpoint output: Emax of C[C@@]1(F)COCc2ccc(C(=O)NCC(=O)Nc3nc(-c4ccnc(C5(O)CC5)c4)cs3)cc21 [Compound 330] . Value?
Reply: > 95%

Task item: Please give the result for Cc1cc(-c2cccc(-c3csc(NC(=O)CNC(=O)c4ccc5c(c4)[C@](C)(CN)CCC5)n3)c2)cc(C)n1 [Compound 225] too.
Reply: > 40%

Task item: Field entry: CSCC[C@H](NC(=O)c1cccc(C(C)(C)CN)c1)C(=O)Nc1nc(-c2cccc(-c3ccncc3)c2)cs1 [Compound 48]
Reply: > 80%

Task item: Also need Cc1cc(C(=O)NCC(=O)Nc2nc(-c3cccc(-c4ccncc4)c3)cs2)cc(S(=O)(=O)C(C)C)c1 [Compound 20] , thanks.
Reply: < 30%

Task item: Same for CNc1cc(-c2cccc(-c3csc(NC(=O)CNC(=O)c4cccc(C(C)(C)CN)c4)n3)c2)ccn1 [Compound 57]
Reply: > 80%

* * *

# SYSTEM NAME: BRG-1 (Homo sapiens)
# TEST NAME: ATPase catalytic activity assay of BRG-1 (ADP-Glo)
# Format: biochemical
# EXPERIMENTAL CONTEXT: ATPase catalytic activity, ADP-Glo; read-out: BRG1 Max % Inhibition
MEASURE NAME: Emax

Task item: Can you share its Emax? I mean this compound: CC(O)(c1cccc(C(=O)NCC(=O)Nc2nc(-c3cccc(-c4ccncc4)c3)cs2)c1)C(F)(F)F (centres unmarked) [Compound 78]
Reply: > 40%

Task item: Entry to check: C[C@@H]1CN(c2cccc(-c3csc(NC(=O)CNC(=O)c4ccc5c(c4)C4(CCO5)COC4)n3)n2)C[C@H](C)O1 [Compound 381]
Reply: > 80%

Task item: Check C[C@@H]1CN(c2cccc(-c3csc(NC(=O)CNC(=O)c4cccc([C@]5(C)COC[C@H]5O)c4)n3)n2)C[C@H](C)O1 [Compound 408] too.
Reply: > 90%

Task item: Next entry: Cc1cc(-c2cccc(-c3csc(NC(=O)CNC(=O)c4ccc(C)c(C(C)(C)CN)c4)n3)n2)ncn1 [Compound 201]
Reply: > 90%

Task item: How about this compound: C[C@@H]1CN(c2cccc(-c3csc(NC(=O)CNC(=O)c4cccc(C5(C)COC5)c4)n3)n2)C[C@H](C)O1 [Compound 187]
Reply: > 70%

Task item: Okay, and C[C@@H]1CN(c2cccc(-c3csc(NC(=O)CNC(=O)c4ccc5c(c4)C(O)(C(F)F)COC5)n3)c2)C[C@H](C)O1 (some centres unmarked) [Compound 326] ?
Reply: > 95%

Task item: Here is the next compound: Cn1ccc(-c2cccc(-c3csc(NC(=O)CNC(=O)c4ccc5c(c4)[C@](C)(CO)CC5)n3)n2)n1 [Compound 265]
Reply: > 30%

Task item: Moving on to the next compound: CC(C)S(=O)(=O)c1cccc(C(=O)NCC(=O)Nc2nc(-c3cccc(-c4cccc(C#N)n4)n3)cs2)c1 [Compound 118]
Reply: < 30%

* * *

# SYSTEM NAME: BRM (Homo sapiens, UniProt P51531)
# Sequence (P51531 whole entry): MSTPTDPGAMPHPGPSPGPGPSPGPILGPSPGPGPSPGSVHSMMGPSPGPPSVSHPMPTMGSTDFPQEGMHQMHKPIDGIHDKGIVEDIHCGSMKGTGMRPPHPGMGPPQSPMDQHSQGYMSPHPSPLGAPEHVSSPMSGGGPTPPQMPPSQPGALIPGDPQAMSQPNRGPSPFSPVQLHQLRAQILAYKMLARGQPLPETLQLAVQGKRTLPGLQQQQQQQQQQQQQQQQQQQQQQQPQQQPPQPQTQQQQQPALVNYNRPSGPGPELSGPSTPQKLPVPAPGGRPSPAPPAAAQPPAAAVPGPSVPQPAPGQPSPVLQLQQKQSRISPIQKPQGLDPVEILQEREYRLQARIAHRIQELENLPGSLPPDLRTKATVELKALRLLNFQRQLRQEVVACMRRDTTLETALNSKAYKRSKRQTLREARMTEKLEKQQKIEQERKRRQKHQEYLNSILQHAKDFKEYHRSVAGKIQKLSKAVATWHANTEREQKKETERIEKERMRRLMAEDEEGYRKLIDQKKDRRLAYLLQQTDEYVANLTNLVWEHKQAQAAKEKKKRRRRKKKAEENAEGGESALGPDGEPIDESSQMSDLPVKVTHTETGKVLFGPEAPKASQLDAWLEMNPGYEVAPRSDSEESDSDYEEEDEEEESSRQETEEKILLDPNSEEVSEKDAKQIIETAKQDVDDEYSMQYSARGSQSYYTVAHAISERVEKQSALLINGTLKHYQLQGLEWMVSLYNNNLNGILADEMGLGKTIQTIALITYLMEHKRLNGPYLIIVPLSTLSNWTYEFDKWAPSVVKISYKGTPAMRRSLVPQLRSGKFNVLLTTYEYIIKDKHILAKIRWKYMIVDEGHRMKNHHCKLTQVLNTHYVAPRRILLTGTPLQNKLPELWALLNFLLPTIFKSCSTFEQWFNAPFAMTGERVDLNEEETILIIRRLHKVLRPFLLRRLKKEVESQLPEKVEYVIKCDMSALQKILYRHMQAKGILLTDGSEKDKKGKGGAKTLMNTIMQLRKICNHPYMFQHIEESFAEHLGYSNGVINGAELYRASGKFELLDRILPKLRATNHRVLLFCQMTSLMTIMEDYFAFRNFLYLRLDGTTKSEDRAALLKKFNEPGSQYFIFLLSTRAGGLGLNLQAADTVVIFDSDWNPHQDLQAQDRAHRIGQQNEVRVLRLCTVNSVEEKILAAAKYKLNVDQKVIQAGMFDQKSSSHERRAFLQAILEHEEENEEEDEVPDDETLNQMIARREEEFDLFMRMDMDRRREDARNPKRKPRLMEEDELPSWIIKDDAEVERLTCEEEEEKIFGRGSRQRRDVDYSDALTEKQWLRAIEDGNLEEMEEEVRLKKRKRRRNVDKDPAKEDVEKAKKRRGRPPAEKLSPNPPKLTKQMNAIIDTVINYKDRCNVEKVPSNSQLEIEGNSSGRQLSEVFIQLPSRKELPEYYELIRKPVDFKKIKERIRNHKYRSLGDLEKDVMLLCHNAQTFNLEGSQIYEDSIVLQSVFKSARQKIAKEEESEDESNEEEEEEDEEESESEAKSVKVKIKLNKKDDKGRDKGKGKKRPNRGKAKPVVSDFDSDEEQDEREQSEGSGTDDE
# TEST NAME: ATPase catalytic activity assay of BRM (ADP-Glo)
# Format: biochemical
Provide the recorded BRM Max % Inhibition for the entries that follow.

Task item: So what's the measured BRM Max % Inhibition for this one? `CC(C)S(=O)(=O)c1cccc(C(=O)NCC(=O)Nc2nc(-c3cccc(-c4ccnc(CN(C)C)c4)c3)cs2)c1`
Reply: >95%

Task item: Moving on to `C[C@@]1(C#N)COCc2ccc(C(=O)NCC(=O)Nc3nc(-c4cc(F)c5c(c4)OCC5)cs3)cc21`
Reply: >95%

Task item: Thanks! And `Cc1cnc(O)c(-c2cccc(-c3csc(NC(=O)CNC(=O)c4ccc5c(c4)[C@@](C)(CO)CC5)n3)n2)c1` ?
Reply: >90%

Task item: Can you handle `CN(C)Cc1cc(-c2cccc(-c3csc(NC(=O)CNC(=O)c4cccc(C(C)(C)CN)c4)n3)c2)ccn1` next?
Reply: >90%

Task item: Please do the same for `C[C@@H]1CN(c2cccc(-c3csc(NC(=O)CNC(=O)c4ccc5c(c4)C4(CCO5)COC4)n3)n2)C[C@H](C)O1` as well.
Reply: >80%

Task item: Further, for `CC(C)S(=O)(=O)c1cccc(C(=O)NCC(=O)Nc2nc(-c3cccc(-c4cccc(Cl)c4)c3)cs2)c1` ?
Reply: >80%

Task item: Check `Cc1cncc(-c2cccc(-c3csc(NC(=O)CNC(=O)c4ccc5c(c4)[C@@](C)(CO)CC5)n3)n2)n1` too.
Reply: >60%

Task item: How about this compound: `C[C@@H]1CN(c2cccc(-c3csc(NC(=O)CNC(=O)c4ccc5c(c4)[C@]4(CCC[C@H]4O)CC5)n3)c2)C[C@H](C)O1`
Reply: >60%

Task item: Param item: `Cc1ccc(C(=O)NCC(=O)Nc2nc(-c3cccc(-c4ccn(C)n4)c3)cs2)cc1S(=O)(=O)C(C)C`
Reply: >95%

Task item: Please answer likewise for C[C@@]1(C#N)COCc2ccc(C(=O)NCC(=O)Nc3nc(-c4cccc(C56CCOCC5C6)c4)cs3)cc21 (stereo partly shown)
Reply: >95%

Task item: Same for `Cc1cc(C(=O)NCC(=O)Nc2nc(-c3cccc(-c4ccncc4)c3)cs2)cc(C(C)(C)CN)c1C`
Reply: >90%

Task item: Query `CC(C)S(=O)(=O)c1cccc(C(=O)NCC(=O)Nc2nc(-c3cccc(-c4cc(CO)cc(C(F)(F)F)c4)c3)cs2)c1` next
Reply: >95%

Task item: Try the compound CC1(C#N)CCc2ccc(C(=O)NCC(=O)Nc3nc(-c4cccc(-c5ccncc5)c4)cs3)cc21 (single isomer, unassigned) [Compound 88]
Reply: >50%

Task item: What do you get for C[C@@]1(C#N)COCc2ccc(C(=O)NCC(=O)Nc3nc(-c4cccc(C5CCO5)c4)cs3)cc21 (stereo partly shown) [Compound 371] ?
Reply: >95%

Task item: Quick one: `Cc1cc(-c2cccc(-c3csc(NC(=O)CNC(=O)c4ccc5c(c4)[C@@](C)(CO)CCC5)n3)n2)ncn1`
Reply: >90%

Task item: For `Cn1ncc(-c2cccc(-c3csc(NC(=O)CNC(=O)c4cccc(C(C)(C)CO)c4)n3)n2)n1` then?
Reply: >90%

Task item: Next: C[C@@H]1CN(c2cccc(-c3csc(NC(=O)CNC(=O)c4ccc5c(c4)C(F)(C(F)F)COC5)n3)c2)C[C@H](C)O1 (stereo in doubt) [Compound 307]
Reply: >95%

Task item: Likewise for `C[C@@H]1CN(c2cccc(-c3csc(NC(=O)CNC(=O)c4ccc5c(c4)[C@@](C)(C#N)CCO5)n3)c2)C[C@H](C)O1` ?
Reply: >70%

Task item: For C[C@@H]1CN(c2cccc(-c3csc(NC(=O)CNC(=O)c4cccc(C5(F)COCC5O)c4)n3)n2)C[C@H](C)O1 (stereo partly shown) then?
Reply: >95%

Task item: Note, next up: `C[C@@H]1CN(c2cccc(-c3csc(NC(=O)CNC(=O)c4cccc([C@]5(C(F)F)CCCO5)c4)n3)c2)C[C@H](C)O1`
Reply: >90%

Task item: Now try `COc1nc(C)cc(-c2cccc(-c3csc(NC(=O)CNC(=O)c4cccc(S(=O)(=O)C(C)C)c4)n3)c2)n1` .
Reply: >95%

Task item: Now this one: `CC(C)(CN)c1cccc(C(=O)NCC(=O)Nc2nc(-c3cccc(-c4ccnc(C(F)(F)F)c4)c3)cs2)c1`
Reply: >80%

* * *

# SYSTEM NAME: UniProt P51532
# TEST NAME: ATPase catalytic activity assay of BRG-1 (ADP-Glo)
# Assay type: biochemical
# EXPERIMENTAL CONTEXT: ATPase catalytic activity, ADP-Glo; read-out: BRG1 Max % Inhibition
Give Emax for every item shown.

Task item: Report Emax for COC(=O)N1CCCC(c2csc(NC(=O)CNC(=O)c3ccc4c(c3)[C@](C)(F)COC4)n2)C1 (stereo in doubt) please.
Reply: > 95%

Task item: Now try `C[C@@H]1CN(c2cccc(-c3csc(NC(=O)CNC(=O)c4cccc([C@H]5COC[C@@H]5O)c4)n3)c2)C[C@H](C)O1` .
Reply: > 30%

Task item: Also `COc1cccc(-c2csc(NC(=O)CNC(=O)c3cc(F)c4c(c3)[C@](C)(C#N)COC4)n2)c1` ?
Reply: > 95%

Task item: Do the same for `C[C@@H]1CN(c2cccc(-c3csc(NC(=O)CNC(=O)c4ccc5c(c4)[C@]4(COC5)CC4(F)F)n3)n2)C[C@H](C)O1` please
Reply: > 90%

Task item: Same read-out for `C[C@@H]1CN(c2cccc(-c3csc(NC(=O)CNC(=O)c4ccc5c(c4)[C@](C)(C#N)CCO5)n3)c2)C[C@H](C)O1` ?
Reply: > 95%

Task item: What do you have for COc1cccc(-c2csc(NC(=O)C3(NC(=O)c4ccc5c(c4)[C@](C)(C#N)COC5)CC3(F)F)n2)c1 (stereo partly drawn) ?
Reply: > 85%

Task item: `C[C@@H]1CN(c2cccc(-c3csc(NC(=O)CNC(=O)c4ccc5c(c4)[C@]4(CCC[C@H]4O)CC5)n3)c2)C[C@H](C)O1` , same question.
Reply: < 30%

Task item: CC1(CO)CCc2ccc(C(=O)NCC(=O)Nc3nc(-c4cccc(-c5ccncc5)c4)cs3)cc21 (single isomer, unassigned) [Compound 105] ?
Reply: > 90%

Task item: What about this compound? `C[C@@H]1CN(c2cccc(-c3csc(NC(=O)CNC(=O)c4ccc5c(c4)[C@@]4(CCC[C@@H]4O)CC5)n3)c2)C[C@H](C)O1`
Reply: > 70%

Task item: Next: `O=C(CNC(=O)c1cccc(C2(C(F)F)COC2)c1)Nc1nc(-c2cccc(N3CCC3)c2)cs1`
Reply: > 90%

Task item: Also check `Cc1cc(-c2cccc(-c3csc(NC(=O)CNC(=O)c4ccc(C)c(C(C)(C)CN)c4)n3)c2)cc(C)n1`
Reply: > 95%

Task item: Item: `C[C@@H]1CN(c2cccc(-c3csc(NC(=O)CNC(=O)c4ccc5c(c4)[C@@](C)(C#N)CC5)n3)n2)C[C@H](C)O1`
Reply: > 50%

Task item: Field entry: C[C@@H]1CN(c2cccc(-c3csc(NC(=O)CNC(=O)c4ccc5c(c4)C(C#N)(CO)COC5)n3)c2)C[C@H](C)O1 (stereo partly drawn)
Reply: > 95%

Task item: Next entry: `CN1C(=O)CCc2ccc(-c3csc(NC(=O)CNC(=O)c4ccc5c(c4)[C@](C)(CO)CC5)n3)cc21`
Reply: > 60%

Task item: `COc1nc(C)cc(-c2cccc(-c3csc(NC(=O)CNC(=O)c4cccc(S(=O)(=O)C(C)C)c4)n3)c2)n1` , same question.
Reply: > 95%

Task item: Then this compound: `Cc1nccc(-c2cccc(-c3csc(NC(=O)CNC(=O)c4ccc5c(c4)[C@](C)(CO)CC5)n3)n2)n1`
Reply: > 80%

Task item: Also, `Cc1nccc(-c2cccc(-c3csc(NC(=O)CNC(=O)c4ccc5c(c4)[C@](C)(C#N)CC5)n3)n2)n1` please.
Reply: > 95%

Task item: Thanks! And `Cc1nccc(-c2cccc(-c3csc(NC(=O)CNC(=O)c4cccc(C(C)(C)CO)c4)n3)n2)n1` ?
Reply: > 80%
